Where do these numbers come from? They come from the supplement of paper PMC10567573.

B1: VAMP4 (parent)
chain: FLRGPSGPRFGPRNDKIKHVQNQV

Variants of: B1
Experiment: protein stability index of a GFP-peptide fusion (GPS, HEK-293T) (PSI 1-6); higher = more stable;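 also: lentivirally expressed fusions sorted by FACS into six bins by GFP to DsRed ratio, PSI derived from sequencing read proportions per bin multiplied by bin number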
Conditions: c terminus: a fixed tail appended
Readout: protein stability index
Give your answer as a number; write no unit.

> print(dat)
   variant.designation  experimental.value
1                  P8D                3.01
2                  P8T                2.71

Turning to the following variant.
Challenge: Find the measured protein stability index of `P8F` and report it.
Response given: 2.28
